Origin of measurements: patent US7345068B2

Measured IC50 of individual entries
# systemTested: LAT1 (Homo sapiens)
# Construct: Using human bladder cancer cell strain T24 cells, in which LAT1 only was strongly expressed; endogenous in cells
# protocolNotes: LAT1 inhibiting activity: inhibition of 14C-L-leucine uptake in T24 cells
# condition: 1 μM 14C-Leu, 1-minute uptake
Give the quantity in µM, number only.

| querySmiles | resultUnit | IC50 |
| --- | --- | --- |
| CN(C)c1ccc(-c2nc3cccc(COc4c(Cl)cc(C[C@H](N)C(=O)O)cc4Cl)c3o2)cc1 | µM | 0.13 |
| COc1ncc(-c2nc3cccc(COc4c(Cl)cc(C[C@H](N)C(=O)O)cc4Cl)c3s2)c(OC)n1 | µM | 0.95 |
| N[C@@H](Cc1cccc(Oc2cccc(-c3ccccc3)c2)c1)C(=O)O | µM | 0.12 |
| N[C@@H](Cc1cc(Cl)c(OCc2cccc3c(=O)c(CO)c(-c4ccccc4)oc23)c(Cl)c1)C(=O)O | µM | 0.2 |
| N[C@@H](Cc1cc(Cl)c(OCc2cccc3nc(-c4ccccc4)oc23)c(Cl)c1)C(=O)O | µM | 0.3 |
| N[C@@H](Cc1cc(Cl)c(OCc2cccc3nc(Cc4ccccc4)oc23)c(Cl)c1)C(=O)O | µM | 0.94 |

Lab note: measured IC50 of COc1ccc(-c2nc3cc(C)cc(COc4c(Cl)cc(C[C@H](N)C(=O)O)cc4Cl)c3o2)cc1 was 0.28

* * *

# systemTested: human LAT1 (hLAT1) (Homo sapiens)
# Sequence (Q01650 whole entry): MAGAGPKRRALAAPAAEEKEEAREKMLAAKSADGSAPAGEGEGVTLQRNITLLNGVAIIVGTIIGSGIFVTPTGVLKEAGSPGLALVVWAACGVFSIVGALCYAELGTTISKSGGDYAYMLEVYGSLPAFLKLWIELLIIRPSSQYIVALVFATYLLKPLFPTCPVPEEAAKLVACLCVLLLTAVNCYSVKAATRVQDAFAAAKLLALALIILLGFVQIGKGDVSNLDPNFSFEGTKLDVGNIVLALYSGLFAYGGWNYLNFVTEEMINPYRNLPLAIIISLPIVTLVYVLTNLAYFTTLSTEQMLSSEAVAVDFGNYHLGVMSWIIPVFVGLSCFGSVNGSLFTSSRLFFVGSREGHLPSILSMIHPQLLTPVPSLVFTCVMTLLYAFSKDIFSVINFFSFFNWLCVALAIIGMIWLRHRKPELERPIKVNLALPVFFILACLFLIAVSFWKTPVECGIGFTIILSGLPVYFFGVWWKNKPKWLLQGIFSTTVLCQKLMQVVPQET
# protocolNotes: Inhibition of leucine uptake into hLAT1 expressing Xenopus oocytes
# condition: 10 μM 14C-Leu, 30 minutes uptake, oocytes with hLAT1 and h4F2hc cRNA
readoutName: pIC50
Give only the number. pIC50 is defined as minus log10 of concentration in molar units.

Observed pIC50, human LAT1 (hLAT1) (Homo sapiens), N[C@@H](Cc1cc(Cl)c(OCCc2coc(-c3ccccc3)n2)c(Cl)c1)C(=O)O [Example 9] : 6.15

Bench note, human LAT1 (hLAT1) (Homo sapiens): N[C@@H](Cc1cc(Cl)c(OCc2cccc3nc(-c4ccccc4)oc23)c(Cl)c1)C(=O)O [Example 6-2)] , pIC50 reads 7.00

* * *

This section presents compounds with their documented melting point values.

| compound | melting point |
| --- | --- |
| N[C@@H](Cc1cc(Cl)c(OCc2cccc3nc(-c4ccc(F)cc4)oc23)c(Cl)c1)C(=O)O | 233 to 236 °C (dec.) |
| N[C@@H](Cc1cc(Cl)c(OCc2cccc3nc(-c4ccc(Cl)cc4)oc23)c(Cl)c1)C(=O)O | 209 to 211 °C |
| CN(C)c1ccc(-c2nc3cccc(COc4c(Cl)cc(C[C@H](N)C(=O)O)cc4Cl)c3o2)cc1 | 219 to 222 °C (dec.) |
| COC(=O)[C@@H](N)Cc1cccc(Oc2ccc3ccccc3c2)c1.Cl | 209 to 211 °C (dec.) |
| COC(=O)[C@@H](N)Cc1cc(Cl)c(OCc2cccc3nc(-c4ccccc4)oc23)c(Cl)c1.Cl | 225 to 225.5 °C (dec.) |
| N[C@@H](Cc1cccc(OCc2ccc3ccccc3c2)c1)C(=O)O [Example 58, 3-[(2-naphthyl)methoxy]-L-phenylalanine] | 201 to 204 °C (dec.) |

Item: N[C@@H](Cc1cccc(Oc2ccc3ccccc3c2)c1)C(=O)O | melting point: 210 to 214 °C (dec.)

Reported melting point of N[C@@H](Cc1cc(Cl)c(OCc2cccc3nc4n(c23)Cc2ccccc2-4)c(Cl)c1)C(=O)O : 200 to 208 °C (dec.)

* * *

readoutName: melting point

Example entries and their recorded answers appear below.
| querySmiles | reportedValue |
| --- | --- |
| COc1ccc(-c2nc3cc(C)cc(COc4c(Cl)cc(C[C@H](N)C(=O)O)cc4Cl)c3o2)cc1 | 210 to 213 °C (dec.) |
| Cc1c(-c2ccccc2)oc2c(COc3c(Cl)cc(C[C@H](N)C(=O)O)cc3Cl)cccc2c1=O | 202 to 204 °C (dec.) |
| N[C@@H](Cc1cc(Cl)c(OCCc2coc(-c3ccc4ccccc4c3)n2)c(Cl)c1)C(=O)O | 232 to 233 °C (dec.) |

Now for a further compound.
melting point in this record for N[C@@H](Cc1cccc(Oc2cccc3ccccc23)c1)C(=O)O : 180 to 186 °C (dec.)

* * *

# systemTested: human LAT2 (hLAT2) (Homo sapiens, UniProt Q9UHI5)
# Sequence (Q9UHI5 whole entry): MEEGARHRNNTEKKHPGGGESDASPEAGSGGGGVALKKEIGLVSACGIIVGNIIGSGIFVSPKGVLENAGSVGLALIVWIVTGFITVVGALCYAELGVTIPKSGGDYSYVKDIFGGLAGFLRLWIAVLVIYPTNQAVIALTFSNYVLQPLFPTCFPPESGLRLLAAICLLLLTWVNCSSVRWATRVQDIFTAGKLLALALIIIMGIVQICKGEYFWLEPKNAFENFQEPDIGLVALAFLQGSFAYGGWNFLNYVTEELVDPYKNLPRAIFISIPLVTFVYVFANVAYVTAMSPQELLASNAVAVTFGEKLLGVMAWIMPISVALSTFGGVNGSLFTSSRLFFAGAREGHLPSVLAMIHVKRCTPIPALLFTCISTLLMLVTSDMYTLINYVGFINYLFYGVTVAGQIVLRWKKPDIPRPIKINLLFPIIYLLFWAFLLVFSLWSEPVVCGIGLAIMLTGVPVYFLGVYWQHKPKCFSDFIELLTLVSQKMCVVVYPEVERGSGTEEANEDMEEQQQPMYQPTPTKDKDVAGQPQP
# protocolNotes: Inhibition of leucine uptake into hLAT2 expressing Xenopus oocytes
# condition: 10 μM 14C-Leu, 30 minutes uptake, oocytes with hLAT2 and h4F2hc cRNA
This listing pairs compounds with measured IC50.

Result for N[C@@H](Cc1cc(Cl)c(OCCc2csc(-c3ccccc3)n2)c(Cl)c1)C(=O)O , tested on human LAT2 (hLAT2) (Homo sapiens, UniProt Q9UHI5), IC50: > 100 µM

N[C@@H](Cc1cccc(Oc2ccc(Oc3ccc(O)cc3)cc2)c1)C(=O)O on human LAT2 (hLAT2) (Homo sapiens, UniProt Q9UHI5) gives IC50 = 0.2 µM

The compound N[C@@H](Cc1cc(Cl)c(OCCc2coc(-c3ccc4ccccc4c3)n2)c(Cl)c1)C(=O)O , tested on human LAT2 (hLAT2) (Homo sapiens, UniProt Q9UHI5), showed IC50 of > 100 µM

Measured IC50 (human LAT2 (hLAT2) (Homo sapiens, UniProt Q9UHI5)), entry N[C@@H](Cc1cc(Cl)c(OCCc2cccc3nc(-c4ccccc4)oc23)c(Cl)c1)C(=O)O : > 100 µM

Reading of IC50 for N[C@@H](Cc1cccc(OCCc2ccc3c(c2)CCCC3)c1)C(=O)O with human LAT2 (hLAT2) (Homo sapiens, UniProt Q9UHI5): < 1 µM

Tested on human LAT2 (hLAT2) (Homo sapiens, UniProt Q9UHI5): N[C@@H](Cc1cccc(OCCc2ccc3ccccc3c2)c1)C(=O)O [Example 59, 3-[2-(2-naphthyl)ethoxy]-L-phenylalanine] . Observed IC50: < 1 µM

Lab note: compound N[C@@H](Cc1cc(Cl)c(OCCc2coc(-c3ccccc3)n2)c(Cl)c1)C(=O)O tested on human LAT2 (hLAT2) (Homo sapiens, UniProt Q9UHI5); recorded IC50 was 69 µM

* * *

melting point for assorted compounds

What the record says about N[C@@H](Cc1cc(Cl)c(OCCc2coc(-c3ccccc3)n2)c(Cl)c1)C(=O)O : melting point is 198 to 205 °C

* * *

readoutName: melting point

Please review the entries below; each comes with its answer.
| compound | reportedValue |
| --- | --- |
| N[C@@H](Cc1cccc(OCCc2ccc3ccccc3c2)c1)C(=O)O [Example 59, 3-[2-(2-naphthyl)ethoxy]-L-phenylalanine] | 210 to 214 °C (dec.) |
| N[C@@H](Cc1cc(Cl)c(OCc2cccc3nc(-c4ccco4)oc23)c(Cl)c1)C(=O)O | 227 to 230 °C (dec.) |
| N[C@@H](Cc1cccc(Oc2ccc3cc(O)ccc3c2)c1)C(=O)O | 210 to 220 °C (dec.) |
| N[C@@H](Cc1cccc(Oc2cccc(-c3cccc(Cl)c3)c2)c1)C(=O)O | 193 to 198 °C (dec.) |

Entry Nc1c(-c2ccccc2)oc2c(COc3c(Cl)cc(C[C@H](N)C(=O)O)cc3Cl)cccc2c1=O , melting point reported as 226 to 230 °C (dec.)

* * *

# systemTested: LAT1 (Homo sapiens, UniProt Q01650)
# Construct: Using human bladder cancer cell strain T24 cells, in which LAT1 only was strongly expressed; endogenous in cells
# Sequence (P08195 102-630 partner, one chain of several): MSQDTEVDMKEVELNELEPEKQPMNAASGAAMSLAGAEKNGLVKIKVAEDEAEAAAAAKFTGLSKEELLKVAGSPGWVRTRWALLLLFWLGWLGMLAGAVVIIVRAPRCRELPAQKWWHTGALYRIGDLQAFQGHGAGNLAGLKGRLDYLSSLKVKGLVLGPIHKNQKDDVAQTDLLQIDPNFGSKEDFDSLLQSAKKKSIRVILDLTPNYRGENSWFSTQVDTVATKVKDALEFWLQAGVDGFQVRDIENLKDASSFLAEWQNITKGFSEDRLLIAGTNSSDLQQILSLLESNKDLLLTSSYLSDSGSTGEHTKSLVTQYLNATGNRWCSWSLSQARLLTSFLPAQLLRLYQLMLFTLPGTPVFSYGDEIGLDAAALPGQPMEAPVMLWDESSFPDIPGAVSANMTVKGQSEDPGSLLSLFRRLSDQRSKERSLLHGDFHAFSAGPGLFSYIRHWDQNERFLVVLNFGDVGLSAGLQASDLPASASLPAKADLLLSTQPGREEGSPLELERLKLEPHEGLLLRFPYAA
# protocolNotes: LAT1 inhibiting activity: inhibition of 14C-L-leucine uptake in T24 cells
# condition: 1 μM 14C-Leu, 1-minute uptake
Reported IC50 values are given for each entry in this list.
Answer in nM, number only, no unit symbol.

| compound | resultUnit | IC50 |
| --- | --- | --- |
| N[C@@H](Cc1cccc(Oc2ccc3[nH]ccc3c2)c1)C(=O)O | nM | 500 |
| N[C@@H](Cc1cccc(Oc2cccc(-c3ccc(Cl)cc3)c2)c1)C(=O)O | nM | 60 |
| NC1(C(=O)O)CC2CCC1C2 (centres unmarked) [BCH, reference compound] | nM | 100000 |
| N[C@@H](Cc1cc(Cl)c(OCc2cccc3nc(-c4cccc(O)c4)oc23)c(Cl)c1)C(=O)O | nM | 300 |
| COC(=O)c1c(-c2ccccc2)oc2c(COc3c(Cl)cc(C[C@H](N)C(=O)O)cc3Cl)cccc2c1=O | nM | 230 |
| N[C@@H](Cc1cccc(Oc2ccc3ccccc3c2)c1)C(=O)O | nM | 100 |

Measured IC50, Cc1cc(C[C@H](N)C(=O)O)cc(C)c1OCc1cccc2nc(-c3ccccc3)oc12 : 110

response.value for N[C@@H](Cc1cccc(Oc2ccc(-c3ccccc3)cc2)c1)C(=O)O (field: IC50) = 170
